Target: native RSV F protein from the RSV A2 strain (Respiratory Syncytial Virus strain A2, UniProt P03420 26-574)
Assay: cell-based or functional assay
readout: ED50, plaque reduction, RSV A2 (pM)
Answer in pM, number only, no unit symbol.

Examples from the recorded data:
{"columns": ["binder", "ED50, plaque reduction, RSV A2 (pM)"],
 "data": [
  ["Fab 30D8 (Fab, V domains shown) VH: EVQLLQSGAELKKPGASVKISCKTSGFTFSGHTIAWVRQAPGQGLEWMGWVSTNNGNTEYAQKIQGRVTMTMDTSTSTVYMELRSLTSDDTAVYFCAREWLVMGGFAFDHWGQGTLLTVSS VL: QSVLTQASSVSVAPGQTARITCGANNIGSQNVHWYQQKPGQAPVLVVYDDRDRPSGIPDRFSGSNSGNTATLTISRVEAGDEADYYCQVWDSSRDQAVIFGGGTKLTVLG", 107],
  ["Fab 14G3 (Fab, V domains shown) VH: QVQLQESGPGLVKPSQTLSLTCTVSGASISSDNHYWSWIRQPPGKGLEWIASIYYTGGTNYNPSLKSRLALSIDTSGDQFSLKLSSVTAADTAVYYCVRGLFFITARPYWYFDLWGRGTLVAVSS VL: DVVMTQTPLSLSVTPGEPASISCRSSQSLLDSDDGNTYLDWYLQKPGQSPQLLIYTLSYRASGVPDRFSGSGSGTDFTLKISRVEADDVGIYYCMQRMEFPFTFGQGTRLDIKR", 3400]
]}

We now examine a further binder.
// Input: Fab 38F10 (Fab, V domains shown) VH: EVQLLESGGDVVQPGKSLRLSCTASGFSITDFGIHWVRQAPGKGLEWVALISYNEVNIHYGESVRGRFTISRDIAKNTVYLQMNGLRPEDTGVYFCARDVWEDSWLSLACFQEWGQGSLVVVSS VL: DIQLTQSPPTLSASVGDRVSMTCRASQSISNWLAWYQQKPGKAPKLLIQKASNLEDGVPSRFTASGFGTEFTLTISSLQPDDFATYYCQQYNSYSGLSFGGGTKVDIKR . Output its ED50, plaque reduction, RSV A2 only.
800

These measurements were taken from patent US20140363427A1.
